assay: Maximum concentration in female mouse upon intravenous administration; assay type: ADME, organism-based; parameters: route intravenous; settings: in vivo

Molecule	Cmax [ng/mL]
CN1C(=O)NC(Cc2c[nH]c3c(Cl)cccc23)C1=O (stereo unspecified)	573

Values from ChEMBL document CHEMBL1143645
